assay: Serum protein binding, Sephadex G-50 size exclusion; format: in vitro ADME; settings: ^68Ga-labelled compound; human serum, 37 °C, 2 h; mean ± SD (n = 3)
value_kind: fraction unbound at 2 h
Give the figure by itself; no unit, no explanation.

Fill blank: measured fraction unbound at 2 h of the compound CC(=O)NC1CCCN(O)C(=O)/C=C(/C)CCOC(=O)C(NC(=O)CCOCCOCCOCCOCCOCCC(=O)NCc2ccc(-c3nncnn3)cc2)CCCN(O)C(=O)/C=C(/C)CCOC(=O)C(NC(C)=O)CCCN(O)C(=O)/C=C(/C)CCOC1=O (stereo not shown) is ____.
0.362

* * *

experiment: Serum protein binding, Sephadex G-50 size exclusion; assay type: in vitro ADME; settings: ^68Ga-labelled compound; human serum, 37 °C, 1 h; mean ± SD (n = 3)
value_kind: fraction unbound at 1 h
Field format: numeric only.

Query: fraction unbound at 1 h; subject: CC(=O)NC1CCCN(O)C(=O)/C=C(/C)CCOC(=O)C(NC(=O)CCOCCOCCOCCOCCOCCC(=O)NCc2ccc(-c3nncnn3)cc2)CCCN(O)C(=O)/C=C(/C)CCOC(=O)C(NC(C)=O)CCCN(O)C(=O)/C=C(/C)CCOC1=O (stereo not shown)
0.382

* * *

assay: Distribution coefficient (logD), octanol/PBS; assay type: physicochemical; settings: octanol/PBS (1:1, v/v), pH 7.4, ^68Ga-labelled compound, mean ± SD (n = 3)
value_kind: logD
Please give the numeric answer without any surrounding text.

Any idea what its logD is? The molecule is CC(=O)NC1CCCN(O)C(=O)/C=C(/C)CCOC(=O)C(NC(=O)CCOCCOCCOCCOCCOCCC(=O)NCc2ccc(-c3nncnn3)cc2)CCCN(O)C(=O)/C=C(/C)CCOC(=O)C(NC(C)=O)CCCN(O)C(=O)/C=C(/C)CCOC1=O (stereo not shown)
-1.64

* * *

Assay: Serum protein binding, Sephadex G-50 size exclusion
Assay type: in vitro ADME
Settings: ^68Ga-labelled compound; human serum, 37 °C, 4 h; mean ± SD (n = 3)
Method: Serum protein binding was determined using Sephadex G-50 (GE Healthcare Vienna, Austria) size exclusion chromatography. […] After 1, 2, and 4 h aliquots (25 µL) were directly transferred to the column (MicroSpin G-50, GE Healthcare) and after centrifugation (2 min, 2000 rcf) the column containing the free conjugate and the eluate containing the protein-bound conjugate were measured in the gamma counter. The percent of activity in both fractions was calculated thereafter.
value_kind: fraction unbound at 4 h
Output: the number by itself.

Which value of fraction unbound at 4 h has been reported for CC(=O)NC1CCCN(O)C(=O)/C=C(/C)CCOC(=O)C(NC(=O)CCOCCOCCOCCOCCOCCC(=O)NCc2ccc(-c3nncnn3)cc2)CCCN(O)C(=O)/C=C(/C)CCOC(=O)C(NC(C)=O)CCCN(O)C(=O)/C=C(/C)CCOC1=O (stereo not shown) in the records?
0.36

All figures here come from paper PMC6316846.
